Cited source for all entries: patent US20250355001A1

Binding regions on hT40 by entry:
# System: hT40, dGA, dGAE and truncated tau fragments
# PROTOCOL NOTES: Binding ELISA / epitope mapping of anti-tau scAbs with truncated tau proteins and 13mer peptides
# Parameters: species or system human
# RUN CONDITIONS: Table 33; core binding scAbs tested in epitope occlusion assays

Below are worked cases with known answers.
MOLECULE	RESULT
C-A9 (protein, left off: small tags and cut ends) scFv: QVQLQESGPSLVKPSQTLSLTCTVSGFSLTSNSVGWVRQAPGKAPEWVAGIDTDGEEGYNPALNSRLSITRDTSKSQVSLSLSSVTSEDTAVYYCGRSYRSDGLAYGYVQAIDYWGPGLLVTVSSEGKSSGASGESKVDDQAVLTQPASVSGSLGQRVSITCSGSFIGISSVGWFQQLPGSGLRTIIVASDGRPSGVPDRFSMSKSGNTATLTISSLQAEDEADYFCGSSDRTQYTGVFGSGTRLTVLG	367-379
S-1D12 (protein, VHCDR1 S1D12, S2C1; VHCDR2 S1D12, S2C1; VHCDR3 S1D12; VLCDR1 S1D12, ME12; VLCDR2 S1D12; VLCDR3 S1D12) CDR 1: NNAVG CDR 2: GCSSDGTCYYNSALKS CDR 3: GHYSIYGYDYLGTIDY CDR 4: SGSSSNVGGGNSVG CDR 5: DTNSRPS CDR 6: VTGDSTTHDDL	337-355

Now for a further molecule.
Record summary for CA4: anti-tau core clone, Table 10; SEQ ID NO: 368 (protein, CA4 amino acid sequence) scFv: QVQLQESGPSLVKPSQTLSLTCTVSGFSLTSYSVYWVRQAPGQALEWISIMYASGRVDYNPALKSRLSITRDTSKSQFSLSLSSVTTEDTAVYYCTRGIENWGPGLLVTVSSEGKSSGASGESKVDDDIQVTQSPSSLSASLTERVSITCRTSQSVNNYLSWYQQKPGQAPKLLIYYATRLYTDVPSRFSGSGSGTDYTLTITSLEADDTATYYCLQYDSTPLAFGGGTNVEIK : reported Binding regions on hT40 = 355-367
